Tested on: Escherichia coli
protocol: Inhibition of lactose permease-dependent [3H]TMG uptake in Escherichia coli HN1157 up to 20 uM
Active and inactive are the calls of the source. No cut-off for these calls is given here.
measured.property: inhibition

* CC1CN(c2nc(SCCc3ccc(NC(=O)OC(C)(C)C)cc3)c(C#N)c3c2COC(C)(C)C3)CC(C)O1 (stereo not given) | inactive
* CC1(C)Cc2c(C#N)c(SCCc3ccccc3)nc(N3CCOCC3)c2CO1 | inactive
* CC1CN(c2nc(SCCc3cccc(F)c3)c(C#N)c3c2COC(C)(C)C3)CC(C)O1 (stereo not given) | inactive
* COCCN1CCN(c2nc(SCCc3ccc(OC)cc3)c(C#N)c3c2COC(C)(C)C3)CC1 | inactive
* CC1CN(c2nc(SCCc3cccnc3)c(C#N)c3c2COC(C)(C)C3)CC(C)O1 (stereo not given) | inactive

###

protocol: Metabolic stability in human liver microsomes assessed as compound remaining at 25 uM after 60 mins by HPLC analysis in presence of NADPH
Type: ADME
condition.label: read-out: Stability
measured.property: remaining at 1 h, 25 µM (%)

• COCCN1CCN(c2nc(SCCc3ccc(OC)c(OC)c3)c(C#N)c3c2COC(C)(C)C3)CC1 = 20
• CC1CN(c2nc(SCCc3ccc(N)cc3)c(C#N)c3c2COC(C)(C)C3)CC(C)O1 (centres undefined) = 76
• COCCN1CCN(c2nc(SCCc3ccccn3)c(C#N)c3c2COC(C)(C)C3)CC1 = 0
• CC(=O)Nc1ccc(CCSc2nc(N3CC(C)OC(C)C3)c3c(c2C#N)CC(C)(C)OC3)cc1 (centres undefined) = 37

###

System: Escherichia coli
protocol: Inhibition of multidrug resistance efflux pump in wild-type Escherichia coli AB1157 assessed as concentration required to reduce piperacillin MIC by 4-fold by checkerboard assay
Below: a set of entries, each annotated with reported INH.
measured.property: INH (µM)

• CN1CCN(c2nc(SCCc3ccccc3)c(C#N)c3c2COC(C)(C)C3)CC1 = 6.3
• CC1CN(c2nc(SCCc3cccc(F)c3)c(C#N)c3c2COC(C)(C)C3)CC(C)O1 (stereo not given) = 1.6
• COc1cccc(CCSc2nc(N3CC(C)OC(C)C3)c3c(c2C#N)CC(C)(C)OC3)c1 (stereo not given) = 1.6
• COCCN1CCN(c2nc(SCCc3ccccn3)c(C#N)c3c2COC(C)(C)C3)CC1 = 3.1
• CC1CN(c2nc(SCCc3ccc(NC(=O)C(F)(F)F)cc3)c(C#N)c3c2COC(C)(C)C3)CC(C)O1 (stereo not given) = 1.6
• CN1CCCN(c2nc(SCCc3ccccc3)c(C#N)c3c2COC(C)(C)C3)CC1 = 25
• COCCN1CCN(c2nc(SCCc3ccccc3F)c(C#N)c3c2COC(C)(C)C3)CC1 = 9.4
• COc1cccc(CCSc2nc(N3CCOCC3)c3c(c2C#N)CC(C)(C)OC3)c1 = 1.6
• COCCN1CCN(c2nc(SCCc3cccnc3)c(C#N)c3c2COC(C)(C)C3)CC1 = 25
• COCCN1CCN(c2nc(SCCOc3ccccc3)c(C#N)c3c2COC(C)(C)C3)CC1 = 12.5
• CC1(C)Cc2c(C#N)c(SCCc3cccc(-c4nnn[nH]4)c3)nc(N3CCOCC3)c2CO1 = 12.5
• CC1(C)Cc2c(C#N)c(SCCc3coc4ccccc34)nc(N3CCOCC3)c2CO1 = 6.3

###

Tested on: Escherichia coli
protocol: Inhibition of multidrug resistance efflux pump in Escherichia coli assessed as concentration required to reduce levofloxacin MIC by 4-fold by checkerboard assay
measured.property: log10 of INH (log10 of the value in µM)

- CC1CN(c2nc(SCCc3cccc(F)c3)c(C#N)c3c2COC(C)(C)C3)CC(C)O1 (centres undefined): 0.20
- COCCN1CCN(c2nc(SCCc3ccccn3)c(C#N)c3c2COC(C)(C)C3)CC1: 1.10
- C=CC(=O)Nc1ccc(CCSc2nc(N3CC(C)OC(C)C3)c3c(c2C#N)CC(C)(C)OC3)cc1 (centres undefined): -1.00
- COc1cccc(CCSc2nc(N3CC(C)OC(C)C3)c3c(c2C#N)CC(C)(C)OC3)c1 (centres undefined): 0.97
- CC(=O)Oc1cccc(CCSc2nc(N3CCOCC3)c3c(c2C#N)CC(C)(C)OC3)c1: 0.20
- COCCN1CCN(c2nc(SCCc3cccc(OC)c3)c(C#N)c3c2COC(C)(C)C3)CC1: 0.80
- COCCN1CCN(c2nc(SCCc3ccc(OC)cc3)c(C#N)c3c2COC(C)(C)C3)CC1: 0.80

###

System: HeLa
protocol: Cytotoxicity against human HeLa cells
Assay type: cell-based
Please respond with Condition met when measured CC50 is strictly beneath 30 µM, and with Condition not met in all other cases.

• COCCN1CCN(c2nc(SCCc3ccncc3)c(C#N)c3c2COC(C)(C)C3)CC1 = Condition not met
• CC1(C)Cc2c(C#N)c(SCCC#N)nc(N3CCOCC3)c2CO1 = Condition not met
• CC1CN(c2nc(SCCc3ccc(NC(=N)N)cc3)c(C#N)c3c2COC(C)(C)C3)CC(C)O1 (stereo unspecified) = Condition met
• CC1(C)Cc2c(C#N)c(SCCc3ccccc3)nc(N3CCCNCC3)c2CO1 = Condition met
• CC1(C)Cc2c(C#N)c(SCCc3cccc(F)c3)nc(N3CCOCC3)c2CO1 = Condition not met
• COCCN1CCN(c2nc(SCCc3ccc(OC)cc3)c(C#N)c3c2COC(C)(C)C3)CC1 = Condition not met
• COCCN1CCN(c2nc(SCCc3cccc(Br)c3)c(C#N)c3c2COC(C)(C)C3)CC1 = Condition not met
• COCCN1CCN(c2nc(SCCc3ccc(OC)c(OC)c3)c(C#N)c3c2COC(C)(C)C3)CC1 = Condition not met
• CC1(C)Cc2c(C#N)c(SCCc3ccccc3)nc(N3CCOCC3)c2CO1 = Condition not met
• CC1CN(c2nc(SCCc3ccc(N)cc3)c(C#N)c3c2COC(C)(C)C3)CC(C)O1 (stereo unspecified) = Condition not met
• COc1ccccc1CCSc1nc(N2CCOCC2)c2c(c1C#N)CC(C)(C)OC2 = Condition not met

###

protocol: Metabolic stability in mouse liver microsomes assessed as compound remaining at 25 uM after 60 mins by HPLC analysis in presence of NADPH
Format: ADME
condition.label: read-out: Stability
hey, just use y if measured remaining at 1 h, 25 µM is less than 10%, otherwise n

- CC1CN(c2nc(SCCc3ccc(NC(=O)C(F)(F)F)cc3)c(C#N)c3c2COC(C)(C)C3)CC(C)O1 (centres undefined): y
- CC1(C)Cc2c(C#N)c(SCCc3ccccc3)nc(N3CCOCC3)c2CO1: y
- CC1CN(c2nc(SCCc3ccc(N)cc3)c(C#N)c3c2COC(C)(C)C3)CC(C)O1 (centres undefined): n
- COCCN1CCN(c2nc(SCCc3ccc(OC)c(OC)c3)c(C#N)c3c2COC(C)(C)C3)CC1: n
- COCCN1CCN(c2nc(SCCc3ccc(OC)cc3)c(C#N)c3c2COC(C)(C)C3)CC1: n
- CC(=O)Nc1ccc(CCSc2nc(N3CC(C)OC(C)C3)c3c(c2C#N)CC(C)(C)OC3)cc1 (centres undefined): y
- COc1ccc(CCSc2nc(N3CCOCC3)c3c(c2C#N)CC(C)(C)OC3)cc1OC: y
- C=CC(=O)Nc1ccc(CCSc2nc(N3CC(C)OC(C)C3)c3c(c2C#N)CC(C)(C)OC3)cc1 (centres undefined): n
- COCCN1CCN(c2nc(SCCc3ccccn3)c(C#N)c3c2COC(C)(C)C3)CC1: y

###

Listed compounds paired with reported [3H]TMG accumulation relative to control
Tested on: Escherichia coli
protocol: Inhibition of lactose permease in Escherichia coli HN1157 assessed as [3H]TMG accumulation up to 20 uM relative to control
measured.property: [3H]TMG accumulation relative to control (%)

- COCCN1CCN(c2nc(SCCc3ccc(OC)c(OC)c3)c(C#N)c3c2COC(C)(C)C3)CC1: 100
- C=CC(=O)Nc1ccc(CCSc2nc(N3CC(C)OC(C)C3)c3c(c2C#N)CC(C)(C)OC3)cc1 (centres undefined): 99
- CC1CN(c2nc(SCCc3ccc(NC(=N)N)cc3)c(C#N)c3c2COC(C)(C)C3)CC(C)O1 (centres undefined): 86
- CC1CN(c2nc(SCCc3ccc(N)cc3)c(C#N)c3c2COC(C)(C)C3)CC(C)O1 (centres undefined): 100

###

protocol: Metabolic stability in mouse liver microsomes assessed as compound remaining at 25 uM after 60 mins by HPLC analysis in presence of NADPH
Type: ADME
condition.label: read-out: Stability
remaining at 1 h, 25 µM listing for selected molecules.
measured.property: remaining at 1 h, 25 µM (%)

* COc1cccc(CCSc2nc(N3CCOCC3)c3c(c2C#N)CC(C)(C)OC3)c1 | 0
* COCCN1CCN(c2nc(SCCc3ccccc3)c(C#N)c3c2COC(C)(C)C3)CC1 | 0
* CC1CN(c2nc(SCCc3ccc(NC(=O)OC(C)(C)C)cc3)c(C#N)c3c2COC(C)(C)C3)CC(C)O1 (stereo not given) | 66
* CC1CN(c2nc(SCCc3ccc(NC(=N)N)cc3)c(C#N)c3c2COC(C)(C)C3)CC(C)O1 (stereo not given) | 90
* CC1CN(c2nc(SCCc3cccnc3)c(C#N)c3c2COC(C)(C)C3)CC(C)O1 (stereo not given) | 19

Value source: ChEMBL document CHEMBL3399972
